Target Under Test: T1, human IL-4 (human, UniProt P05112 25-153)
T1 sequence (looked up): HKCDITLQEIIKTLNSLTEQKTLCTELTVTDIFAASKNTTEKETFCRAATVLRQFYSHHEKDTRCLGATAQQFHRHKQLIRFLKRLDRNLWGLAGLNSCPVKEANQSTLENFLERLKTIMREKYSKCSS
Procedure Summary: cell-based or functional assay
Quantity Measured: CD23: Fold bioactivity relative to IL4-1285

QUERY: Which CD23: Fold bioactivity relative to IL4-1285 value belongs to IL4-1347 (antibody, human IgG1, kappa, V domains shown) VH: QVTLRESGPALVKPTQTLTLTCTFSGFSLSTSGMGVSWIRQPPGKGLEWLAHIYWDDDKRYNPSLKSRLTISKDTSRNQVVLTMTNMDPVDTATYYCARRETVFYWYFDVWGRGTPVTVSS VL: DIQMTQSPSSLSASVGDRVTITCKASQSVDEDGDSYMNWYQQKPGKAPKLLIYAASNLESGVPSRFSGSGSGTDFTLTISSLQPEDFATYYCQQSNEDPPTFGGGTKVEIKR ?
RESULT: 1.5 fold
